Measured Target: ATP-dependent Clp protease proteolytic subunit, mitochondrial (Homo sapiens, UniProt Q16740)
Sequence (Q16740 whole entry, the tested form may be a part): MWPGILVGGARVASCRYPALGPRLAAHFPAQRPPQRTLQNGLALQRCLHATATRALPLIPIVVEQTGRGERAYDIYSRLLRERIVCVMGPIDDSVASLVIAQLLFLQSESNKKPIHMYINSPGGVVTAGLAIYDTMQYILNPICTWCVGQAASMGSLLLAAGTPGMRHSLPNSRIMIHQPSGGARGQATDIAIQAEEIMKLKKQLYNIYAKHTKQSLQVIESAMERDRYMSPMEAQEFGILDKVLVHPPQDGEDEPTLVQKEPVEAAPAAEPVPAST
Assay Explanation: Agonist activity at human CLpP (57 to 277 amino acids) expressed in Escherichia coli using fluorogenic peptide AC-WLA-AMC as substrate incubated for 10 mins by fluorescence based assay
Endpoint: EC50 (nM)
Report as a plain number; the unit nM is understood.

What does the record list as EC50 for `O=c1nc2n(c3c1CN(Cc1ccccc1)CC3)CCN2Cc1ccc(Cl)cc1` ?
300

What does the record list as EC50 for `O=c1nc2n(c3c1CN(Cc1ccccc1)CC3)CCN2Cc1cccc(Cl)c1` ?
280

What does the record list as EC50 for `O=c1nc2n(c3c1CN(Cc1ccccc1)CC3)CCN2Cc1cccc(F)c1` ?
260

What does the record list as EC50 for `O=c1nc2n(c3c1CN(Cc1ccccc1)CC3)CCN2Cc1ccc(Br)c(F)c1` ?
210

Taken from ChEMBL document CHEMBL5154926.
